# Test system: Blood
# experiment description: Inhibition of LPS-induced IL8 production in human whole blood
# Assay type: functional, tissue-based
measured metric: pIC50
Entry type: numeric. Quantity: pIC50, the -log10 of concentration in molar units.

Reported pIC50 of POLYMYXIN B : 4.79

----------
# Tested on: Blood
# experiment description: Inhibition of LPS-induced IL6 production in human whole blood
# Assay type: functional, tissue-based
# experimental conditions: Homo sapiens, Blood
measured metric: IC50 (µM)
Kindly provide the numeric value in µM only, without the unit symbol.

Reported IC50 of `CCCCCCCCCCCCCCC/C=C(/CCCCCCCCCCCCCC)CNCCCNCCCNCCCCNCCCN` : 4

Just for reference, ChEMBL document CHEMBL1149633 is where these values come from.
